# maps each entry to its Average response
- targetOrTestSystem: Drosophila OR47a (Drosophila melanogaster, UniProt P81921)
- Construct: expressed in transfected cells
- Sequence (P81921 whole entry): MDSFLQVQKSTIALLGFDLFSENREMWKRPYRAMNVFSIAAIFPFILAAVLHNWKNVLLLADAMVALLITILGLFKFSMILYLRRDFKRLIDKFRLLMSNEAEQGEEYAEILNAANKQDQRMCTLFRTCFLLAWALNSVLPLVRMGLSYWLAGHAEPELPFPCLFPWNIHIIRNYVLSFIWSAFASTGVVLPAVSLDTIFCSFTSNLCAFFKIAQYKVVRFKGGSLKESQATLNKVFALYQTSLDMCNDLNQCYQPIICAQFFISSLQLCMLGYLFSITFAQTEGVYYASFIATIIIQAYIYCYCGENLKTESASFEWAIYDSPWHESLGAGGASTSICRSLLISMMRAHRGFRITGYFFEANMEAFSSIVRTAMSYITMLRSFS
- Sequence (Q9VNB5 whole entry partner): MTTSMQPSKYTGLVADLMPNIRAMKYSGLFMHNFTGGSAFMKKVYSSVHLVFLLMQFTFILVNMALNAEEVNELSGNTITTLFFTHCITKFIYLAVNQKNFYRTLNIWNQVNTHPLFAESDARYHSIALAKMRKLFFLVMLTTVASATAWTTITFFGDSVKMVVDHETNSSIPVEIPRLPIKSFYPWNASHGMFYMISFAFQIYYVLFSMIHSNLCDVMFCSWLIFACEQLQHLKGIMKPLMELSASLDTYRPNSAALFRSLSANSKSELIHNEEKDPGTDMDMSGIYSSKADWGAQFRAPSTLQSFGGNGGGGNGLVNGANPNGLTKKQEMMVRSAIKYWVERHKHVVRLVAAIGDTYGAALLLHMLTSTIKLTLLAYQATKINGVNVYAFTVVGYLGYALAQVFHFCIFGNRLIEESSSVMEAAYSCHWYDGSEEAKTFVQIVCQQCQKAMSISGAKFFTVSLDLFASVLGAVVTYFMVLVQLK
- test: Calcium ion fluorescence (GCaMP6) assay, OR47a stable HEK293 cell line
- Type: cell-based
- settings: OR47a cell line; odorant cc. 10 µM; mean of biological replicates
- Method: These VUAA1 normalized ∆F values were used to compare the different receptors and ligands. The concentration-dependent effect of the reference ligands on their cognate cell lines was examined in more detail. Twelve different ligand concentrations were measured on each cell line in an overall 0.01 μM to 100 μM concentration range with 5 repetitions with three technical replicates each time. […]
The answer should be written as a number, with no unit following it.

Average response for Drosophila OR47a (Drosophila melanogaster, UniProt P81921) with input C=C1CC[C@H]2O[C@]2(C)CC[C@@H]2[C@@H]1CC2(C)C [(-)-caryophyllene oxide] equals 0.00

Average response for Drosophila OR47a (Drosophila melanogaster, UniProt P81921) with input `Cc1ccccc1C` equals 0.00

Average response for Drosophila OR47a (Drosophila melanogaster, UniProt P81921) with input C=CC(O)CCCCC (stereo not drawn) equals 0.0268

Average response for Drosophila OR47a (Drosophila melanogaster, UniProt P81921) with input CCCOC(C)=O [propyl acetate] equals 0.09

Average response for Drosophila OR47a (Drosophila melanogaster, UniProt P81921) with input `CC1=CC[C@@H](C(C)(C)O)CC1` equals 0.00

* * *

- targetOrTestSystem: Drosophila OR98a (Drosophila melanogaster, UniProt Q9VAZ3)
- Construct: expressed in transfected cells
- Sequence (Q9VAZ3 whole entry, one chain of several): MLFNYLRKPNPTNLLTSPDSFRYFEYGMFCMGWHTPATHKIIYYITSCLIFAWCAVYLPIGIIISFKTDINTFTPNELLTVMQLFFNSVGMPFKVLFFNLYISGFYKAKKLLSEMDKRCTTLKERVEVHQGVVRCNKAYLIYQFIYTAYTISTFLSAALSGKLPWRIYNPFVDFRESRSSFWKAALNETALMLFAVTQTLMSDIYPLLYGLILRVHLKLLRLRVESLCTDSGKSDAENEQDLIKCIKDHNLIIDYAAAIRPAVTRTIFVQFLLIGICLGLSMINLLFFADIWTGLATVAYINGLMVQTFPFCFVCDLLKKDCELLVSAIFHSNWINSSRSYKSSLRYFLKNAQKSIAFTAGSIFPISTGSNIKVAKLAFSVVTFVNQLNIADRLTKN
- test: Calcium ion fluorescence (GCaMP6) assay, OR98a stable HEK293 cell line
- Format: cell-based
- settings: concentration 100; normalized fluorescence change, values below 0.05 threshold given as 0
measuredEndpoint: DF norm AVERAGE OR98a

{"molecule": "Cc1cccc(O)c1 [3-methylphenol]", "value": 0.05828}

Reported DF norm AVERAGE OR98a for CC1=CCC2C(C1)C2(C)C (stereo not shown) [3-carene] was 0

Reported DF norm AVERAGE OR98a for CCCCC(C)O (stereo not shown) [2-hexanol] was 0.1401

Reported DF norm AVERAGE OR98a for CCCCC(C)=O [2-hexanone] was 0

* * *

# maps each entry to its Average response
- targetOrTestSystem: Drosophila OR85b (Drosophila melanogaster)
- Construct: expressed in transfected cells
- Sequence (Q9VHQ7 whole entry): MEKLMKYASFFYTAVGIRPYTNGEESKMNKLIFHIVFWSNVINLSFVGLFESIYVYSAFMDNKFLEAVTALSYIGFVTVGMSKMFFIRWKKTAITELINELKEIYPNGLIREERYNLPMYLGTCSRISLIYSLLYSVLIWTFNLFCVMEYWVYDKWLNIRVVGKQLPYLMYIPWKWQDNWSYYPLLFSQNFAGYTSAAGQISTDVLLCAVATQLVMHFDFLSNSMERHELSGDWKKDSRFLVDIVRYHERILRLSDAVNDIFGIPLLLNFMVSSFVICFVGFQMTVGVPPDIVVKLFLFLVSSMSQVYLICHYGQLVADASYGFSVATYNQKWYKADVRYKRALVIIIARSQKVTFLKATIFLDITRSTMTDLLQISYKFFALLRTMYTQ
- Sequence (Q9VNB5 whole entry partner): as the sequence (Q9VNB5 whole entry partner) above
- test: Calcium ion fluorescence (GCaMP6) assay, OR85b stable HEK293 cell line
- Type: cell-based
- settings: OR85b cell line; cc. 1 µM; VUAA1-normalized response, mean of biological replicates
- Description: These VUAA1 normalized ∆F values were used to compare the different receptors and ligands. The concentration-dependent effect of the reference ligands on their cognate cell lines was examined in more detail. Twelve different ligand concentrations were measured on each cell line in an overall 0.01 μM to 100 μM concentration range with 5 repetitions with three technical replicates each time. […]
The answer should be written as a number, with no unit following it.

{"compound": "C=C1[C@H]2CC[C@@H]3[C@H]2C(C)(C)CCC[C@]13C [(+)-longifolene]", "Average response": 0.08}
{"compound": "Cc1ccc(C(C)C)cc1", "Average response": 0.00}
{"compound": "CC1=CC[C@@H](C(C)(C)O)CC1", "Average response": 0.05}
{"compound": "C=Cc1ccccc1", "Average response": 0.00}

Reported Average response for C=CC(O)CCCCC (centres unmarked) was 0.00

Reported Average response for `CCc1ccccc1` was 0.00719

Reported Average response for `CCCCCCCCCC=O` was 0.00
